Species on record: Bos taurus
Experiment: Inhibition of calf brain tubulin polymerization at 20 uM after 20 mins
parameter-measured: inhibition (%)
Respond with the bare value in %.

Consider the following illustrative entries.
compound	unit-abbreviation	inhibition
COc1ccc(C(=O)c2ccc3c(ccn3C)c2)c(OC)c1OC	%	98
COc1ccc(/C(=N\N)c2ccc3c(ccn3C)c2)c(OC)c1OC	%	25
COc1ccc(C(O)c2ccc3c(ccn3C)c2)c(OC)c1OC (configuration not stated)	%	9
CCn1ccc2cc(C(O)c3ccc(OC)c(OC)c3OC)ccc21 (configuration not stated)	%	-0
CCn1ccc2cc(/C(=N/N)c3ccc(OC)c(OC)c3OC)ccc21	%	12
COc1ccc(C(=O)c2cc(OC)c(OC)c(OC)c2)cc1O [PHENSTATIN]	%	97
CCn1ccc2cc(/C(=N/OC(C)=O)c3ccc(OC)c(OC)c3OC)ccc21	%	29
COc1ccc(/C(=N\NC(C)=O)c2ccc3c(ccn3C)c2)c(OC)c1OC	%	22
COc1ccc(C(=O)c2ccc(OC)c(OC)c2OC)cc1O	%	19
CN/N=C(/c1ccc2c(ccn2C)c1)c1ccc(OC)c(OC)c1OC	%	-0

**Q:** Recall and state the measured inhibition for CCn1ccc2cc(C(=O)c3ccc(OC)c(OC)c3OC)ccc21 .
**A:** 47

**Q:** Recall and state the measured inhibition for CCn1ccc2cc(/C(=N/NC(C)=O)c3ccc(OC)c(OC)c3OC)ccc21 .
**A:** 5

---

Experiment: Inhibition of calf brain tubulin polymerization after 20 mins
Set-up: species or system Bos taurus
Reported log10 IC50 values follow for various molecules
Base-10 log of IC50, unit µM.

Consider the following illustrative entries.
molecule	log10 IC50
COc1ccc(/C=C\c2cc(OC)c(OC)c(OC)c2)cc1O [COMBRETASTATIN A4]	0.48
COc1ccc(/C(=N\O)c2ccc3c(ccn3C)c2)c(OC)c1OC	0.95
CCn1ccc2cc(C(=O)c3ccc(OC)c(OC)c3OC)ccc21	0.75

**Q:** Recall and state the measured log10 IC50 for COc1ccc(C(=O)c2ccc3c(ccn3C)c2)c(OC)c1OC .
**A:** -0.40

**Q:** Recall and state the measured log10 IC50 for CCn1ccc2cc(/C(=N/O)c3ccc(OC)c(OC)c3OC)ccc21 .
**A:** 1.63

**Q:** Recall and state the measured log10 IC50 for COc1cc(C(=O)c2ccc3c(ccn3C)c2)cc(OC)c1OC .
**A:** 0.84

**Q:** Recall and state the measured log10 IC50 for COc1ccc(C(=O)c2cc(OC)c(OC)c(OC)c2)cc1O [PHENSTATIN] .
**A:** 0.40

---

Species on record: Bos taurus
Assay: Inhibition of calf brain tubulin polymerization at 30 uM after 20 mins
parameter-measured: inhibition (%)
Respond with the bare value in %.

CCn1ccc2cc(/C(=N\NC)c3ccc(OC)c(OC)c3OC)ccc21 17
CCn1ccc2cc(/C(=N/O)c3ccc(OC)c(OC)c3OC)ccc21 52
COc1ccc(/C(=N\OC(C)=O)c2ccc3c(ccn3C)c2)c(OC)c1OC 20

Now examine the next entry.
**Q:** Recall and state the measured inhibition for COc1ccc(/C(=N\O)c2ccc3c(ccn3C)c2)c(OC)c1OC .
**A:** 82
